Origin of measurements: paper PMC7170901

Test system: MDA-MB-231 (human breast cancer) cell line
run-description: MTT cell viability assay in MDA-MB-231 cells
Type: cell-based
run-conditions: Homo sapiens, MDA-MB-231, 72 h, MDA-MB-231, 50 µM, 72 h, MTT; read-out: Cell Viability (%) ± SD
Method: IC50 values were determined by plotting values of percent cell viability against concentration of each of these compounds. […] The experiments were performed in triplicates, n = 3 and ± SE value was calculated for each data point. […] Cell viability assay was performed as per standard protocols. […] The percentage of viable cells in each group is determined with respect to the untreated control cells.
parameter: viability at 50 µM

viability at 50 µM for `OC[C@H]1O[C@@H](Cc2cc(-c3c[nH]c4ccc(Br)cc34)on2)[C@@H](O)[C@@H](O)[C@@H]1O` ?
95.7%

Which viability at 50 µM is reported for this compound? `OC[C@H]1O[C@@H](Cc2cc(-c3c[nH]c4ccc(Cl)cc34)on2)[C@H](O)[C@@H](O)[C@@H]1O`
99.3%

Consider the compound O=[N+]([O-])c1ccc2[nH]cc(C3CC(C[C@@H]4O[C@H](CO)[C@H](O)[C@H](O)[C@H]4O)=NN3)c2c1 (stereo partly shown) and give its measured viability at 50 µM.
99.5%

Reported viability at 50 µM for `O=[N+]([O-])c1ccc2[nH]cc(-c3cc(C[C@@H]4O[C@H](CO)[C@@H](O)[C@H](O)[C@@H]4O)no3)c2c1` : what is it?
95.2%

Any idea what viability at 50 µM was measured for OC[C@H]1O[C@@H](CC2=NNC(c3c[nH]c4ccc(Cl)cc34)C2)[C@@H](O)[C@@H](O)[C@@H]1O (stereo partly shown) ?
66.5%

So what does the record say about viability at 50 µM for OC[C@H]1O[C@@H](CC2=NNC(c3c[nH]c4ccc(Cl)cc34)C2)[C@H](O)[C@@H](O)[C@@H]1O (stereo partly shown) ?
77.7%

If you can, please state the reported viability at 50 µM value of `OC[C@H]1O[C@@H](Cc2cc(-c3c[nH]c4ccccc34)on2)[C@H](O)[C@@H](O)[C@@H]1O` .
92.6%
